Collected Population Apoptotic (%) values appear next to each entry.
system: HEK-293T; experiment: Multiplex assay against HEK293T; type: toxicity, cell-based; settings: human, 24 h, 10 µM, compound concentration 10 uM, replicate 2
Express the result in % but write the number alone.

>>> print(df.to_string())
                              smiles_record  assayed_target  quantitative_result
0  CCOc1cc(N2CCC(O)CC2)ccc1Nc1ncc2c(n1)N(C1CCCC1)CCC(=O)N2C        HEK-293T                    0
1  O=C(O)c1ccc2cc(-c3ccc(O)c(C45CC6CC(CC(C6)C4)C5)c3)ccc2c1        HEK-293T                   25
2  N#Cc1cnc(Nc2cc(NC[C@H]3CNCCO3)c(C(F)(F)F)cn2)cn1        HEK-293T                   21

The molecule "CC(C)(C)c1cnc(CSc2cnc(NC(=O)C3CCNCC3)s2)o1" showed Population Apoptotic (%) equal to 31

Kindly note the recorded Population Apoptotic (%) for "CCCn1c(=O)c2[nH]c(C34CC5CC(CC3C5)C4)nc2n(CCC)c1=O" , which is 40

// recorded Population Apoptotic (%) for "CNc1oc(-c2cccc3ccccc23)nc1C#N" : 13
